System: MDA-N
Test: NCI tumour cell line growth inhibition, 48 h
Each record here notes measured TGI.

- SMILES INPUT: "C=CC(C)(C)c1c(OC)oc2ccc(OC)c(C)c2c1=O"
  TGI: "> 100 µM"
- SMILES INPUT: "[N-]=[N+]=NCC(=O)c1c[nH]c(=O)[nH]c1=O"
  TGI: "> 100 µM"
- SMILES INPUT: "N=C(N)SCCSC(=N)N"
  TGI: "> 100 µM"
- SMILES INPUT: "Cn1c(=O)oc2cc(C(=O)CN3CCN(Cc4ccc5c(c4)OCO5)CC3)c(Cl)cc21"
  TGI: "> 100 µM"
- SMILES INPUT: "N#Cc1nc(/C=C/c2cccs2)oc1N"
  TGI: "> 100 µM"
- SMILES INPUT: "Cc1cc(C)c2c(=O)cc(-c3ccccc3)[nH]c2c1"
  TGI: "3.17 µM"
- SMILES INPUT: "COc1ccc(-c2nc(SCC(=O)N/N=C/c3ccc([N+](=O)[O-])cc3)[nH]c2-c2ccc(OC)cc2)cc1"
  TGI: "12.9 µM"
- SMILES INPUT: "CNC(=S)N/N=C(\\C)c1cc(OC)c(OC)cc1O"
  TGI: "> 100 µM"

Numbers sourced from PubChem BioAssay (NCI).
